Where these numbers come from: paper PMC10866072

- Tested on: NCI-H226
- Assay type: cell-based
- measurement_context: Homo sapiens, one dose 10^-5 M, 48 h
Here, each record is paired with measured % growth at 10 µM data.

chemical_smiles	tested_system	% growth at 10 µM (%)
N=C(NN=Cc1ccc(Br)cc1)c1c(N)nc(S)nc1-c1ccc(Cl)cc1Cl	NCI-H226	107
N=C(NN=Cc1ccccc1)c1c(N)nc(S)nc1-c1ccc(Cl)cc1Cl	NCI-H226	92
COc1ccc(C=NNC(=N)c2c(N)nc(S)nc2-c2ccc(Cl)cc2Cl)cc1	NCI-H226	97.2
CN(C)c1ccc(-c2nc(S)nc(N)c2C(=N)NN=Cc2ccc(Br)cc2)cc1	NCI-H226	95.7
N=C(NN=Cc1ccc(Br)cc1)c1c(N)nc(S)nc1-c1ccc(Cl)cc1	NCI-H226	98
Nc1nc(S)nc(-c2ccc(Cl)cc2)c1-c1ncn[nH]1	NCI-H226	92.7
N=C(NN=Cc1ccc([N+](=O)[O-])cc1)c1c(N)nc(S)nc1-c1ccc(Cl)cc1Cl	NCI-H226	82.1
N=C(NN=Cc1ccc(Cl)cc1)c1c(N)nc(S)nc1-c1ccc(Cl)cc1	NCI-H226	99
CN(C)c1ccc(-c2nc(S)nc(N)c2C(=N)NN=Cc2ccc(Cl)cc2)cc1	NCI-H226	99.8
COc1ccc(C=NNC(=N)c2c(N)nc(S)nc2-c2ccc(Cl)cc2)cc1	NCI-H226	125
N#Cc1c(N)nc(S)nc1-c1ccc(Cl)cc1	NCI-H226	78.7
CN(C)c1ccc(-c2nc(S)nc(N)c2C(=N)NN=Cc2ccc(Cl)cc2Cl)cc1	NCI-H226	95.5
N=C(NN=Cc1ccccc1)c1c(N)nc(S)nc1-c1ccc(Cl)cc1	NCI-H226	-0.68
N=C(NN=Cc1ccc(Cl)cc1)c1c(N)nc(S)nc1-c1ccc(Cl)cc1Cl	NCI-H226	86.3
CN(C)c1ccc(-c2nc(S)nc(N)c2-c2ncn[nH]2)cc1	NCI-H226	110

###

- Tested on: SK-MEL-5
- Format: cell-based
- measurement_context: Homo sapiens, one dose 10^-5 M, 48 h, read-out: % growth
Here, each record is paired with measured activity at 10 µM data.

compound	activity at 10 µM (%)
N=C(NN=Cc1ccccc1)c1c(N)nc(S)nc1-c1ccc(Cl)cc1Cl [Compound 4m]	103
CN(C)c1ccc(-c2nc(S)nc(N)c2C(=N)NN=Cc2ccc(Br)cc2)cc1 [Compound 4e]	101
Nc1nc(S)nc(-c2ccc(Cl)cc2Cl)c1-c1ncn[nH]1 [Compound 5c]	94.8
CN(C)c1ccc(-c2nc(S)nc(N)c2C(=N)NN=Cc2ccccc2)cc1 [Compound 4a]	103
COc1ccc(/C=N\NC(=N)c2c(N)nc(S)nc2-c2ccc(N(C)C)cc2)cc1 [Compound 4d]	102

###

Here, each record is paired with measured % cell growth at 10 µM data.
- Tested on: BT-549
- Format: cell-based
- measurement_context: Homo sapiens, one dose 10^-5 M, 48 h

chemical_smiles	% cell growth at 10 µM [%]
CN(C)c1ccc(-c2nc(S)nc(N)c2C(=N)NN=Cc2ccc(Br)cc2)cc1	107
COc1ccc(/C=N\NC(=N)c2c(N)nc(S)nc2-c2ccc(N(C)C)cc2)cc1	102
N=C(NN=Cc1ccccc1)c1c(N)nc(S)nc1-c1ccc(Cl)cc1Cl	88.5
CN(C)c1ccc(-c2nc(S)nc(N)c2C#N)cc1	85.4
CN(C)c1ccc(-c2nc(S)nc(N)c2C(=N)NN=Cc2ccccc2)cc1	103
Nc1nc(S)nc(-c2ccc(Cl)cc2Cl)c1-c1ncn[nH]1	97.3
